Ref: PubChem BioAssay AID1224864

Task for the reader: assign each of the following compounds its reported plasma membrane CFTR intensity.
study-system: Cystic fibrosis transmembrane conductance regulator (Homo sapiens)
assay-remarks: F508del-CFTR plasma membrane relocalization enhancers – imaging, HeLa, high-content microscopy, immunofluorescence, primary screen (AID 1224864);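 note: HeLa cells stably expressing F508del-CFTR stained with 3G11 antibody against NBD1; mean immunofluorescence in a thin cell-margin band taken as plasma membrane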
test-parameters: PM immunofluorescence imaging, 24 h, at 10 µM, active compounds read high, relative to vehicle wells set at 100
Hit rate of the full screen: of about 2,000 compounds, about 20 (1%) were called active. The sample holds actives, similar compounds and a random draw of the others, so the mix is not that of the screen.
Report the figure in % without appending any unit label.

Lab note: measured plasma membrane CFTR intensity of CC(NC(=O)c1cccnc1)C(=O)O (stereo unspecified) was 75

Lab note: measured plasma membrane CFTR intensity of COC1CCCCC1Nc1ccc(C)c(C)c1 (stereo unspecified) was 80

Lab note: measured plasma membrane CFTR intensity of Fc1ccccc1CNCCC(Cc1ccccc1)c1ccc2c(c1)OCO2 (stereo unspecified) was 171

Lab note: measured plasma membrane CFTR intensity of COc1ccc2cc(C3(C)NC(=O)NC3=O)ccc2c1 (stereo unspecified) was 89

Lab note: measured plasma membrane CFTR intensity of CCOC(=O)C1C(=O)OC2(CCOC(C)(C)C2)C1C(=O)OCC (stereo unspecified) was 90

Lab note: measured plasma membrane CFTR intensity of O=C(CCCCC(=O)NC1CCCC1)NC1CCCC1 was 90

Lab note: measured plasma membrane CFTR intensity of COc1ccc(OC(C)C(=O)Nc2ccc([N+](=O)[O-])cc2)cc1 (stereo unspecified) was 76

Lab note: measured plasma membrane CFTR intensity of O=C(O)c1ccc(OCCn2ccnc2)cc1 was 77

Lab note: measured plasma membrane CFTR intensity of NC12CC3CC(C1)CC(O)(C3)C2 was 89

Lab note: measured plasma membrane CFTR intensity of CCOC(=O)C1C2C=CC3(CN(c4ccc(Cl)c(F)c4)C(=O)C13)O2 (stereo unspecified) was 84

Lab note: measured plasma membrane CFTR intensity of CCN(CC)CCOC(=O)C(c1ccccc1)c1ccccc1 was 86

Lab note: measured plasma membrane CFTR intensity of Nc1ccc(N)c(C(=O)O)c1 was 77

Lab note: measured plasma membrane CFTR intensity of O=C(O)CCCN1C(=O)NC2NC(=O)NC21 (stereo unspecified) was 91

Lab note: measured plasma membrane CFTR intensity of COC(=O)C1[C@H]2C(=O)N(Cc3cccs3)C[C@]23C=C[C@H]1O3 (stereo partly specified) was 92

Lab note: measured plasma membrane CFTR intensity of CCc1cccc2c1NC1(CCCC1)CC2C (stereo unspecified) was 74

Lab note: measured plasma membrane CFTR intensity of CC(=O)N1CC23C=CC(CC2CC12CCCCCC2)O3 (stereo unspecified) was 73

Lab note: measured plasma membrane CFTR intensity of CCN1C(=O)C(CC(=O)Nc2ccc(F)cc2)N(Cc2ccc3c(c2)OCO3)C1=S (stereo unspecified) was 81

Lab note: measured plasma membrane CFTR intensity of O=c1nc2n(c3c1oc1ccccc13)Cc1ccccc1-2 was 131

Lab note: measured plasma membrane CFTR intensity of O=C(c1ccco1)N(CCC(c1ccccc1)c1ccco1)Cc1ccco1 (stereo unspecified) was 99

Lab note: measured plasma membrane CFTR intensity of O=C(COc1ccccc1)N1CCN(c2ccccc2)CC1 was 88

Lab note: measured plasma membrane CFTR intensity of CC(=O)c1c(N)nc2n(c1=O)CCCCC2 was 80

Lab note: measured plasma membrane CFTR intensity of COc1cc(CNCc2ccc(OC)c(OC)c2OC)cc(OC)c1 was 85

Lab note: measured plasma membrane CFTR intensity of CCNC(=O)c1sc2cc(C)ccc2c1Cl was 92

Lab note: measured plasma membrane CFTR intensity of Cc1ccc(CN2CCN(CCCc3ccccc3)CC2CCO)cc1 (stereo unspecified) was 82

Lab note: measured plasma membrane CFTR intensity of COc1ccccc1NC(=O)N1CCc2[nH]c3ccc(Cl)cc3c2C1 was 92

Lab note: measured plasma membrane CFTR intensity of CC12CCC(C(=O)NNc3ccccc3)(C(=O)C1=O)C2(C)C (stereo unspecified) was 92

###

study-system: Cystic fibrosis transmembrane conductance regulator (Homo sapiens)
assay-remarks: F508del-CFTR plasma membrane relocalization enhancers – imaging, HeLa, high-content microscopy, immunofluorescence, primary screen (AID 1224864);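 note: HeLa cells stably expressing F508del-CFTR stained with 3G11 antibody against NBD1; mean immunofluorescence in a thin cell-margin band taken as plasma membrane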
test-parameters: PM immunofluorescence imaging, 24 h, at 10 µM, active compounds read high, relative to vehicle wells set at 100
The campaign covered roughly 2,000 compounds. About 20 (1%) were called active. This is one part of a sample in which actives are shown more often than they occur.
Task for the reader: assign each of the following compounds its reported plasma membrane CFTR intensity.
Report the figure in % without appending any unit label.

Lab note: measured plasma membrane CFTR intensity of CC(=O)c1c[nH]c2ccc(C)cc2c1=O was 83

Lab note: measured plasma membrane CFTR intensity of C#C[C@]1(O)CC[C@H]2[C@@H]3CCc4cc(O)ccc4[C@H]3CC[C@@]21C was 113

Lab note: measured plasma membrane CFTR intensity of O=C(O)[C@H](Cc1ccccc1)NC(=O)N1CCC(Cc2ccccc2)CC1 was 89

Lab note: measured plasma membrane CFTR intensity of C#C[C@]1(O)CC[C@H]2[C@@H]3CCc4cc(OC5CCCC5)ccc4[C@H]3CC[C@@]21C was 41

Lab note: measured plasma membrane CFTR intensity of NS(=O)(=O)c1cc2c(cc1Cl)NC(CSCc1ccccc1)=NS2(=O)=O was 84

Lab note: measured plasma membrane CFTR intensity of COc1cccc(CC2CC(=O)N(c3ccc4c(C)cc(=O)oc4c3)C2=O)c1 (stereo not given) was 77

Lab note: measured plasma membrane CFTR intensity of C=C(C)COc1ccc(-c2nc(N)ncc2-c2ccc(OC)cc2)c(O)c1 was 82

Lab note: measured plasma membrane CFTR intensity of Cc1cc(/C=N/O)c(C)n1-c1ccc(Br)cc1 was 78

Lab note: measured plasma membrane CFTR intensity of O=C(NCC1CCCO1)c1ccc(OC2CCN(C(=O)C3CC3)CC2)cc1 (stereo not given) was 83

Lab note: measured plasma membrane CFTR intensity of COc1ccc(CNC(=O)c2cc3c(=O)n4ccccc4nc3n(Cc3cccnc3)c2=N)cc1 was 556

###

study-system: Cystic fibrosis transmembrane conductance regulator (Homo sapiens) (UniProt P13569)
Sequence (P13569 whole entry, looked up, stated change not applied): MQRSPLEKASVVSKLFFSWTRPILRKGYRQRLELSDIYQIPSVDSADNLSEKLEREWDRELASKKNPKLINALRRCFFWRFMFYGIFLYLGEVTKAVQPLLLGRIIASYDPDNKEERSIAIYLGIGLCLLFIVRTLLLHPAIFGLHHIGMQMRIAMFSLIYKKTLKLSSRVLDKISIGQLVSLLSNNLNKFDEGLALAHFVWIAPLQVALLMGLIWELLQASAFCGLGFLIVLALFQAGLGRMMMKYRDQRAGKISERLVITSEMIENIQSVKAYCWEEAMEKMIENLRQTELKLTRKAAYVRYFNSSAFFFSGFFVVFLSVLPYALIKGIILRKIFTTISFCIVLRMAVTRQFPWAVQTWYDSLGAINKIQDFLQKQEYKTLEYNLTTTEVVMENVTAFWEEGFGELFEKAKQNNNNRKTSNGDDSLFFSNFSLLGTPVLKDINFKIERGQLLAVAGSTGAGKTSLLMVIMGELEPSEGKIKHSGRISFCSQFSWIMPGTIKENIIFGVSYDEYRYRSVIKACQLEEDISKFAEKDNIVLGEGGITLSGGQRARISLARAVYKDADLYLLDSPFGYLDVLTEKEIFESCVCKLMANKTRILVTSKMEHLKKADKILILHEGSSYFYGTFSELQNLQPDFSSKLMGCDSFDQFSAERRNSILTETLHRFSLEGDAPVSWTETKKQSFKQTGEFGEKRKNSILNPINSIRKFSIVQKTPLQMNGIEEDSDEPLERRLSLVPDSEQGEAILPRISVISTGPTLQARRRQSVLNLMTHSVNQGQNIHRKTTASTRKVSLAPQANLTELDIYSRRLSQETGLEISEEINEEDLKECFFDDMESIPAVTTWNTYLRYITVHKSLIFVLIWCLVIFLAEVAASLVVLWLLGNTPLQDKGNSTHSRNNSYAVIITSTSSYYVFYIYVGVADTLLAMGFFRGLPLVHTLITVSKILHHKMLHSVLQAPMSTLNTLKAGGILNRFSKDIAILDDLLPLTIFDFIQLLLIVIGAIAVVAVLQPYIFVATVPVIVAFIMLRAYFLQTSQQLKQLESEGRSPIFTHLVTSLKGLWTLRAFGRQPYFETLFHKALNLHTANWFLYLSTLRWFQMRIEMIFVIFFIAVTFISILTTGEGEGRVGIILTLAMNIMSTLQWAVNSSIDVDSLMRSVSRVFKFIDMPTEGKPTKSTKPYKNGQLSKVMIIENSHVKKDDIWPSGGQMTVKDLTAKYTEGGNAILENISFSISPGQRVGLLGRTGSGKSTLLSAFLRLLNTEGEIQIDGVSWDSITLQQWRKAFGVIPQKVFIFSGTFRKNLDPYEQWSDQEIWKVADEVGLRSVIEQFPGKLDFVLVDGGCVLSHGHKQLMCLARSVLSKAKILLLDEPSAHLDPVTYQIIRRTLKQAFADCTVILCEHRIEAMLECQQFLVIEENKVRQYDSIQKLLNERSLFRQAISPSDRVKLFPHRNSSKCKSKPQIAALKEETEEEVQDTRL
assay-remarks: F508del-CFTR plasma membrane relocalization enhancers – imaging, HeLa, high-content microscopy, immunofluorescence, primary screen (AID 1224864);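 note: HeLa cells stably expressing F508del-CFTR stained with 3G11 antibody against NBD1; mean immunofluorescence in a thin cell-margin band taken as plasma membrane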
test-parameters: PM immunofluorescence imaging, 24 h, at 10 µM, relative to vehicle wells set at 100
In all, about 2,000 compounds went through this assay and about 20 (1%) were called active. The rule behind the calls is not given here. The entries come from a sample that favours actives as a whole. Residues, ends and D or L forms follow the SMILES beside them.
Use one of these outcomes when replying: YES = active, NO = inactive

Query: Called result for CC(=O)NC(CC(C)C)C(=O)NC(Cc1ccccc1)C(N)=O (stereo not drawn) (Ac-Leu-Phe-NH2; configuration not given here)
Reply: NO

Query: Called result for COc1ccc(C(=O)CC2OC(=O)c3c2ccc(OC)c3OC)cc1 (stereo unspecified)
Reply: NO

Query: Called result for Cc1csc(N)n1
Reply: NO

Query: Called result for O=C(CCCC(=O)OCC1CCCO1)OCC1CCCO1 (stereo unspecified)
Reply: NO

Query: Called result for Cc1cc(C(=O)NC(CC(C)C)C(=O)O)cc(C)c1[N+](=O)[O-] (stereo unspecified)
Reply: NO

Query: Called result for Cc1cc(O)c(C(=O)Cc2csc(C)n2)c(O)c1
Reply: YES

Query: Called result for O=C(NCCO)c1ccc(Cl)c(Cl)c1
Reply: NO

Query: Called result for CC(C)CN(C)Cc1c(C(=O)N2CCc3ccccc3C2)nc2ccc(Cl)cn12
Reply: NO

Query: Called result for Cc1cc(O)c2/c(=N/N)c(-c3csc(C)n3)coc2c1
Reply: NO

Query: Called result for CC(C)CC(=O)N(Cc1ccc(F)cc1)C1CCS(=O)(=O)C1 (stereo unspecified)
Reply: NO

Query: Called result for COc1ccc2c(c1OC)C(C1c3c(cc4c(c3OC)OCO4)CCN1C)OC2=O (stereo unspecified)
Reply: NO

###

study-system: Cystic fibrosis transmembrane conductance regulator (Homo sapiens)
assay-remarks: F508del-CFTR plasma membrane relocalization enhancers – imaging, HeLa, high-content microscopy, immunofluorescence, primary screen (AID 1224864);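 note: HeLa cells stably expressing F508del-CFTR stained with 3G11 antibody against NBD1; mean immunofluorescence in a thin cell-margin band taken as plasma membrane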
test-parameters: PM immunofluorescence imaging, 24 h, at 10 µM, active compounds read high, relative to vehicle wells set at 100
Screen size: about 2,000 compounds; about 20 (1%) were called active. Shown is part of a subset that was picked to be rich in actives.
Task for the reader: assign each of the following compounds its reported plasma membrane CFTR intensity.

Lab note: measured plasma membrane CFTR intensity of COc1ccc2c(c1)c(=O)oc1cc3occ(C(C)(C)C)c3cc12 was 92% (inactive)

Lab note: measured plasma membrane CFTR intensity of N#C/C(C(N)=O)=c1/ccc2c(c1)N1C3=C(CCCC3)CC3CCCCC31N=2 (configuration not stated) was 109% (active)

Lab note: measured plasma membrane CFTR intensity of COc1cc(-c2nnc(-c3cccs3)o2)cc(OC)c1OC was 96% (inactive)

Lab note: measured plasma membrane CFTR intensity of O=C1CC(c2ccc(OCCCCCOc3ccc(C4CC(=O)NC4=O)cc3)cc2)C(=O)N1 (configuration not stated) was 96% (inactive)

Lab note: measured plasma membrane CFTR intensity of COC(=O)c1ccc(NC(=O)c2ccccc2SC)cc1 was 81% (inactive)

Lab note: measured plasma membrane CFTR intensity of CC(C)NC[C@@H](O)c1ccc(O)c(O)c1 was 100% (inactive)

Lab note: measured plasma membrane CFTR intensity of CC(COc1ccccc1)NC(C)C(O)c1ccc(O)cc1 (configuration not stated) was 104% (active)

Lab note: measured plasma membrane CFTR intensity of CNC[C@H](O)c1ccc(O)c(O)c1 was 101% (active)

Lab note: measured plasma membrane CFTR intensity of O=C(Cc1ccccc1)NNC(=O)Cc1ccccc1 was 74% (inactive)

Lab note: measured plasma membrane CFTR intensity of O=C(CCC1CCCN(C(=O)c2ccsc2)C1)NCc1ccc(F)c(F)c1 (configuration not stated) was 81% (inactive)

Lab note: measured plasma membrane CFTR intensity of CN(C)c1cc(NC(=O)CN2CCOCC2)c2ccccc2n1 was 91% (inactive)

Lab note: measured plasma membrane CFTR intensity of CC(NCCc1ccc(O)cc1)C(O)c1ccc(O)cc1 (configuration not stated) was 101% (inactive)
